Assay: Study KAR5585-101 Part 1 (SAD): plasma pharmacokinetics after a single oral dose of KAR5585, fasting and fed (incl. dose proportionality and food effect)
Details: human, plasma, po, 1200 mg, C12, KAR5417 after 1200 mg KAR5585 single oral, fasted, Cohort 5; Mean
measuredAttribute: concentration at 12 h (ng/mL)

{"columns": ["compound", "measuredAttribute", "measurement"],
 "data": [
  ["Nc1nc(O[C@H](c2ccc(Cl)cc2-c2ccccc2)C(F)(F)F)cc(N2CCC3(CC2)CN[C@H](C(=O)O)C3)n1 [KAR5417]", "concentration at 12 h", 213]
]}

====

Assay: Study KAR5585-101 Part 1 (SAD): plasma pharmacokinetics after a single oral dose of KAR5585, fasting and fed (incl. dose proportionality and food effect)
Conditions: human, plasma, po, 400 mg, AUC0-∞, 400 mg KAR5585 single oral, fed, Cohort 3B; Mean

{"columns": ["smilesText", "AUC(0-inf) (ng·h/mL)"],
 "data": [
  ["CCOC(=O)[C@@H]1CC2(CCN(c3cc(O[C@H](c4ccc(Cl)cc4-c4ccccc4)C(F)(F)F)nc(N)n3)CC2)CN1", 915]
]}
